tested on: HEK-293T; test: Incucyte cell viability with HEK293T; assay type: toxicity, cell-based; conditions: human, 0 h, 10 µM, compound concentration 10 uM, replicate number 2; further: unitless GR value; below 1 slowed growth and below 0 cell loss
REPORTED_ENDPOINT: Growth Rate

Prompt: Find Growth Rate for CCC(C)(C)CC[C@H](NC(=O)N1CCOCC1)C(=O)NC1(C#N)CCN(C)CC1 on HEK-293T and write it down.
Response: -0.17

Prompt: Find Growth Rate for CN[C@@H](C)C(=O)N[C@H](C(=O)N1CCC[C@H]1C(=O)N[C@@H]1CCCc2ccccc21)C1CCCCC1.Cl on HEK-293T and write it down.
Response: -0.36

Prompt: Find Growth Rate for S=c1[nH]nc(-c2cccs2)n1-c1ccccc1 on HEK-293T and write it down.
Response: 0.81

Prompt: Find Growth Rate for Cc1ncsc1-c1ccc(CNC(=O)[C@@H]2C[C@H](O)CN2C(=O)[C@@H](NC(=O)C2(F)CC2)C(C)(C)C)c(OCCOc2ccc(CN3CCN(c4cc(-c5ccccc5O)nnc4N)CC3)cc2)c1 on HEK-293T and write it down.
Response: -0.99

----------
tested on: HEK-293T; experiment: Incucyte cell viability with HEK293T; format: toxicity, cell-based; settings: human, 24 h, 10 µM, compound concentration 10 uM, replicate number 1; further: unitless GR value; below 1 slowed growth and below 0 cell loss
REPORTED_ENDPOINT: Growth Rate
Respond using a number only.

Prompt: Please give measured Growth Rate of the following entry: Cl.Cl.O=[N+]([O-])c1ccc(CN2CCOCCOCCN(Cc3ccc([N+](=O)[O-])cc3)CCOCC2)cc1
Response: 0.2

Prompt: Please give measured Growth Rate of the following entry: C=C(F)C(=O)N1CCN(c2nc(OC[C@@H]3CCCN3C)nc3c2CCN(c2cccc4cccc(Cl)c24)C3)C[C@@H]1CC#N [ADAGRASIB]
Response: -0.21

Prompt: Please give measured Growth Rate of the following entry: CC(C)(C)OC(=O)CN1C(=O)c2c(OCC(=O)O)cccc2Oc2ccc(C(F)(F)F)cc21
Response: 0.75

Prompt: Please give measured Growth Rate of the following entry: O=C(O)CCCCN(CCc1ccccc1OCc1ccc(CCc2ccccc2)cc1)Cc1ccc(C(=O)O)cc1
Response: 0.99

----------
system: Fibroblast; assay: Incucyte cell viability with human fibroblast; assay type: toxicity, cell-based; settings: 18 h, 10 µM, compound concentration 10 uM, replicate number 1; further: unitless GR value; below 1 slowed growth and below 0 cell loss
REPORTED_ENDPOINT: Growth Rate
Respond using a number only.

Prompt: Find Growth Rate for CCc1cnn2c(NCc3ccc[n+]([O-])c3)cc(N3CCCCC3CCO)nc12 (stereo not given) on Fibroblast and write it down.
Response: 0.16

Prompt: Find Growth Rate for CC#CC(=O)N1CCN(c2nc(-c3ccc(Oc4ccccc4)cc3)c(C(N)=O)s2)CC1 on Fibroblast and write it down.
Response: 0.52

Prompt: Find Growth Rate for Cc1cc(-c2ccnc(Nc3cnn(C)c3)n2)ccc1CNC(=O)N1CC(OC(C)C)C1 on Fibroblast and write it down.
Response: 0.97

Prompt: Find Growth Rate for O=C(O)[C@]1(Cc2cccc(Nc3nccs3)n2)CC[C@@H](Oc2cccc(Cl)c2F)CC1 on Fibroblast and write it down.
Response: 0.17

Prompt: Find Growth Rate for Clc1cccc(-n2nnnc2NCc2ccccc2Oc2ccccn2)c1Cl on Fibroblast and write it down.
Response: 0.74

Prompt: Find Growth Rate for CCOC(=O)c1ccc(CN(Cc2ccc(-c3cccc(S(C)(=O)=O)c3)cc2)S(=O)(=O)c2c(C)cc(C)cc2C)o1 on Fibroblast and write it down.
Response: 0.86

Prompt: Find Growth Rate for COc1ccc2c(O[C@@H]3C[C@H]4C(=O)N[C@]5(C(=O)NS(=O)(=O)C6(C)CC6)CC5/C=C\CCCCC[C@H](NC(=O)c5ccn(C)n5)C(=O)N4C3)cc(OC(C)C)nc2c1C (stereo not given in full) on Fibroblast and write it down.
Response: 0.9

Prompt: Find Growth Rate for Clc1ccc(-c2nc3sccn3c2/C=N/OCc2ccc(Cl)c(Cl)c2)cc1 on Fibroblast and write it down.
Response: 0.63

Prompt: Find Growth Rate for COc1ccccc1C(=O)Nc1cccc(NC(=O)c2cccc(C)c2)c1 on Fibroblast and write it down.
Response: 0.17

Prompt: Find Growth Rate for CN1C(=O)Cc2ccc(-c3ccc(C[C@@H](C#N)NC(=O)[C@H]4N[C@@H]5CC[C@H]4C5)c(F)c3)cc21 on Fibroblast and write it down.
Response: 0.72

Prompt: Find Growth Rate for Cc1cc(Cn2c(N3CC4(CNC4)C3)nc3cc(Cl)cc(N4CCN(C)CC4)c32)cc(C)c1F on Fibroblast and write it down.
Response: 0

Prompt: Find Growth Rate for Cc1cccc(-c2[nH]c(CNc3ccccc3F)nc2-c2ccc3ncnn3c2)n1 on Fibroblast and write it down.
Response: 0.97

Prompt: Find Growth Rate for CCCN1CCC(C#N)(NC(=O)[C@H](CC(C)(C)C)NC(=O)N2CCOCC2)CC1 on Fibroblast and write it down.
Response: 0.88

Prompt: Find Growth Rate for C[C@H](NC(=O)c1cc(Cl)ccc1Oc1ccc(F)cc1)c1ccc(C(=O)O)cc1 on Fibroblast and write it down.
Response: 0.85

Prompt: Find Growth Rate for CNc1ncc2cc(-c3ccc(-c4cccc(C)n4)cc3Cl)c(=O)n(C[C@H]3OC[C@H](N)CO3)c2n1 on Fibroblast and write it down.
Response: 0.37

Prompt: Find Growth Rate for COc1ccc([C@@H]2Sc3ccccc3N(CCN(C)C)C(=O)[C@@H]2OC(C)=O)cc1.Cl [DILTIAZEM HYDROCHLORIDE] on Fibroblast and write it down.
Response: 0.89

Prompt: Find Growth Rate for O=C(Nc1cc(C(F)(F)F)cc(C(F)(F)F)c1)c1cc(Cl)ccc1O on Fibroblast and write it down.
Response: -0.63

Prompt: Find Growth Rate for Cc1cc(CN)cc(C)c1-c1ncn(C)c1-c1ccnc2cc(F)ccc12.Cl on Fibroblast and write it down.
Response: 0.6

Prompt: Find Growth Rate for Cc1cc(OC2CCS(=O)(=O)CC2)cc(C)c1-c1cccc(COc2ccc(CCC(=O)O)c(F)c2)c1 on Fibroblast and write it down.
Response: 0.84

Prompt: Find Growth Rate for CCN(C)S(=O)(=O)Nc1cccc(-c2ccc3c(NC(=O)C4CC4)n[nH]c3c2)c1 on Fibroblast and write it down.
Response: -0.01

Prompt: Find Growth Rate for CC(F)(F)CN1C(=O)c2[nH]nc(-c3cccc4[nH]c(=O)oc34)c2C1c1ccc(Oc2cc(C(F)(F)F)cc(C(F)(F)F)c2)cc1 (stereo not given) on Fibroblast and write it down.
Response: 0.98

Prompt: Find Growth Rate for CCCC(=O)C1CCN(c2ncnc3c2CN(C(=O)c2ccc(-c4ccccc4)cc2)CC3)CC1 on Fibroblast and write it down.
Response: 0.74

Prompt: Find Growth Rate for COc1cc(C)c(S(=O)(=O)N(C)CCOCC(=O)N(C)[C@H]2CCC[C@@H](N3CCN(C)CC3)C2)c(C)c1.O=C(O)C(O)C(O)C(=O)O on Fibroblast and write it down.
Response: 0.93

Prompt: Find Growth Rate for O=C(NS(=O)(=O)N1CCC1)c1cc(C2CC2)c(OCC23CC4CC(CC(C4)C2)C3)cc1F on Fibroblast and write it down.
Response: 0.03

Prompt: Find Growth Rate for CC(=O)O.Cc1cc2c(ncn2C2(C)CN(C(=O)c3ccn(CC4CCN([C@H]5C=CCCCC5)CC4)c3)C2)c(N)n1 on Fibroblast and write it down.
Response: 0.86

Prompt: Find Growth Rate for Cl.c1ccc2c(c1)CCC[C@H]2Nc1nc2ccccc2[nH]1 on Fibroblast and write it down.
Response: 0.44

Prompt: Find Growth Rate for COc1cc(-c2cncc(-c3ccc(N4CCN(C(C)C)CC4)cc3)c2C)cc(F)c1C(=O)N1CCCC1 on Fibroblast and write it down.
Response: 0.73

Prompt: Find Growth Rate for CC(=O)N(CCN(C)C)c1ccc(N/C(=C2\C(=O)Nc3cc(Cl)ccc32)c2ccccc2)cn1 on Fibroblast and write it down.
Response: -0.63

Prompt: Find Growth Rate for S=c1[nH]nc(-c2cccs2)n1-c1ccccc1 on Fibroblast and write it down.
Response: -0.25

Prompt: Find Growth Rate for CC(C)(O)c1cn(-c2ccc(-c3cccc(S(C)(=O)=O)c3)cc2)c(C(C)(C)c2ccccc2Cl)n1 on Fibroblast and write it down.
Response: 0.36

Prompt: Find Growth Rate for CN(C)CCCN1c2ccccc2Sc2ccc(Cl)cc21.Cl [CHLORPROMAZINE HYDROCHLORIDE] on Fibroblast and write it down.
Response: -0.35

Prompt: Find Growth Rate for CN(C)CCCNc1ccnc(Nc2cccc(Cl)c2)n1 on Fibroblast and write it down.
Response: 0.67

Prompt: Find Growth Rate for CC(=O)O.NCCCc1c(C(=O)O)[nH]c2ccc(C(=O)Nc3ccccc3)cc12 on Fibroblast and write it down.
Response: 0.95

Prompt: Find Growth Rate for COc1ccccc1[C@@H]1CNCCC12CCN(C(=O)[C@](OC)(c1ccccc1)C(F)(F)F)CC2 on Fibroblast and write it down.
Response: 0.54

Prompt: Find Growth Rate for COc1cc(-c2cc3ncccc3c(O[C@H](C)[C@H]3CNC(=O)C3)n2)cc(OC)c1OC.Cl on Fibroblast and write it down.
Response: 0.88

Reference source for all entries: ChEMBL document CHEMBL5303304
